Cited source: patent US20060135569A1

Below, each of the molecules is paired with its reported TA102 −S9 value.
test system: TA102; experiment: Ames test, strain TA102; type: cell-based; conditions: 0.5 μg/dish
metric: TA102 −S9

INSERT INTO measurements (molecule, tgt, reportedresult) VALUES
  ('O=c1c2cc(F)ccc2[se]n1-c1cccnc1 [IMM-128]', 'TA102', 214.67),
  ('O=c1c2cc(F)ccc2[se]n1-c1ccccn1 [IMM-127]', 'TA102', 199.67),
  ('C/C(=N\O)c1ccc(-n2[se]c3ccccc3c2=O)cc1 [IMM-065]', 'TA102', 244.00),
  ('O=c1c2ccc(Cl)cc2[se]n1-c1ccncc1 [IMM-313]', 'TA102', 215.33),
  ('O=c1c2cc(Cl)ccc2[se]n1-c1ccccn1 [IMM-004]', 'TA102', 164.67);

----------
System: TA102
Experiment: Ames test, strain TA102
Format: cell-based
Details: 5 μg/dish
Experimental: To assess the mutagenic effects of 5 compounds (IMM-004; IMM-065; IMM-127; IMM-128; IMM-313), the Ames test was performed in 4 strains (TA97; TA98; TA100; TA102). The experiment was conducted with compounds at 4 concentration levels (0.5, 5, 50 and 500 μg/dish). […]
Below, each of the molecules is paired with its reported TA102 +S9 value.
metric: TA102 +S9

INSERT INTO assay_data (testsmiles, metric, reportedresult) VALUES
  ('O=c1c2cc(F)ccc2[se]n1-c1ccccn1', 'TA102 +S9', 216.00),
  ('O=c1c2cc(Cl)ccc2[se]n1-c1ccccn1', 'TA102 +S9', 250.67),
  ('O=c1c2ccc(Cl)cc2[se]n1-c1ccncc1', 'TA102 +S9', 220.00),
  ('O=c1c2cc(F)ccc2[se]n1-c1cccnc1', 'TA102 +S9', 234.67),
  ('C/C(=N\O)c1ccc(-n2[se]c3ccccc3c2=O)cc1', 'TA102 +S9', 308.00);

----------
tested on: TA100; assay: Ames test, strain TA100; type: cell-based; details: 50 μg/dish
Below, each of the compounds is paired with its reported TA100 +S9 value.
metric: TA100 +S9

INSERT INTO results (compound, tgt, reportedresult) VALUES
  ('O=c1c2cc(Cl)ccc2[se]n1-c1ccccn1 [IMM-004]', 'TA100', 126.00),
  ('O=c1c2cc(F)ccc2[se]n1-c1cccnc1 [IMM-128]', 'TA100', 141.33),
  ('O=c1c2cc(F)ccc2[se]n1-c1ccccn1 [IMM-127]', 'TA100', 100.00),
  ('C/C(=N\O)c1ccc(-n2[se]c3ccccc3c2=O)cc1 [IMM-065]', 'TA100', 180.33),
  ('O=c1c2ccc(Cl)cc2[se]n1-c1ccncc1 [IMM-313]', 'TA100', 106.00);

----------
Below, each of the compounds is paired with its reported TA97 +S9 value.
test system: TA97; test: Ames test, strain TA97; assay type: cell-based; details: 50 μg/dish
metric: TA97 +S9

INSERT INTO measurements (testsmiles, reportedresult) VALUES
  ('O=c1c2cc(Cl)ccc2[se]n1-c1ccccn1', 204.67),
  ('O=c1c2cc(F)ccc2[se]n1-c1ccccn1', 68.50),
  ('C/C(=N\O)c1ccc(-n2[se]c3ccccc3c2=O)cc1', 82.67),
  ('O=c1c2ccc(Cl)cc2[se]n1-c1ccncc1', 60.00),
  ('O=c1c2cc(F)ccc2[se]n1-c1cccnc1', 60.33);
